# test_target: Upc2 (UniProt Q12151)
# Sequence: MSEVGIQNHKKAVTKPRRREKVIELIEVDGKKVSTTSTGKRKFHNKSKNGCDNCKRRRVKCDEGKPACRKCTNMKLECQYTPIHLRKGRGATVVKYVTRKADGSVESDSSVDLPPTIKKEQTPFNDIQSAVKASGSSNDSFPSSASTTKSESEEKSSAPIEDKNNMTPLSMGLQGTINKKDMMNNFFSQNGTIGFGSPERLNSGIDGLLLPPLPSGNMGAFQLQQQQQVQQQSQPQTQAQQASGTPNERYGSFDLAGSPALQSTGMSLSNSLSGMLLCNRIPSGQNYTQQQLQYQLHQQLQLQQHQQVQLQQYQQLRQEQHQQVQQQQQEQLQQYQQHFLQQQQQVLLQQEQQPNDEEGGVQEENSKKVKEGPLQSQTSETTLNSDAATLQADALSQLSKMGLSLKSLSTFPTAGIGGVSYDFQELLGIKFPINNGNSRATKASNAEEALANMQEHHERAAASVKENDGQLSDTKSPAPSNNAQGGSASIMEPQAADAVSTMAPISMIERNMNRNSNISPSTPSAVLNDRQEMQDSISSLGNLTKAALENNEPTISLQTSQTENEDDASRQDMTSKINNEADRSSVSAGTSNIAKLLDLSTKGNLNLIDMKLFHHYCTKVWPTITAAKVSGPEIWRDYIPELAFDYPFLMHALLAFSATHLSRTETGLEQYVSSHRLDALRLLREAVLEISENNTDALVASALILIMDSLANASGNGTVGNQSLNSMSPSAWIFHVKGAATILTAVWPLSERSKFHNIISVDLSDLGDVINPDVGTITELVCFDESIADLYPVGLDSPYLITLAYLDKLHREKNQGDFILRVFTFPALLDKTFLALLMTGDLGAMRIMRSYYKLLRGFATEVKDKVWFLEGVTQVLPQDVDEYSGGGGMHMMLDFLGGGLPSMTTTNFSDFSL
# experimental_details: PBM E-score (8-mer binding enrichment) (E-score (-0.5 to 0.5)); higher = stronger / more preferred TF binding
# measurement_context: protein concentration: 200 nM; construct: GST-full length
In all, about 33,000 sequences were measured (“E-score (-0.5 to 0.5)”: median about -0.043, highest 2% from about 0.37 on). The list comes from a sample in which the highest values are over-represented; it also holds close analogues and randomly drawn sequences.
recorded_metric: PBM E-score
Kindly provide the number alone.

Consider the worked cases shown below.
[[record]]
primary_sequence = "CGGGTACC"
test_target = "Upc2 (UniProt Q12151)"
recorded_metric = "PBM E-score"
assay_result = -0.158

[[record]]
primary_sequence = "CTCGCTGA"
test_target = "Upc2 (UniProt Q12151)"
recorded_metric = "PBM E-score"
assay_result = -0.136

[[record]]
primary_sequence = "AACGACAG"
test_target = "Upc2 (UniProt Q12151)"
recorded_metric = "PBM E-score"
assay_result = 0.419

[[record]]
primary_sequence = "GGTATAAC"
test_target = "Upc2 (UniProt Q12151)"
recorded_metric = "PBM E-score"
assay_result = 0.135


Requested field: PBM E-score. Item: `GCTAGCTA` 0.0155

Reported PBM E-score, sequence `CCACGTTA` : ____ 0.136

# PBM E-score lookup, item `CGTCTATA` 0.0202

What does the data say about its PBM E-score? Entry: `CCTCGTTA` 0.399

Find the recorded PBM E-score belonging to `CTCGTATC` and report it. 0.473

// PBM E-score lookup, key: `AGTATAAC` 0.172

What value of PBM E-score has been reported for the following sequence? `TCCGAAGA` 0.0352

Dear colleague, I am looking for the recorded PBM E-score of the following sequence: `CACGAAGC` 0.017

Quick one: PBM E-score for `ATCGTATG` ? 0.455

Entry `CTCTACGC` has what PBM E-score? 0.0628

Form field: reported PBM E-score of `ACTCGGTC` 0.0379

I have this sequence here, `CTCGCATA` , and I need its recorded PBM E-score. 0.363

Quick check: PBM E-score of `CGTTCCCC` ? 0.333

Need PBM E-score, item `CCTCGTCC` -0.3

Which value of PBM E-score has been reported for `CCGTCGCG` in the records? 0.132

Which measured PBM E-score value corresponds to `GTTGTGAA` ? 0.00742

GET /values?readout=PBM E-score&item= `GTCGCATA` 0.375

Could you tell me which PBM E-score is on file for `TGTACCAA` ? 0.03

Return reported PBM E-score; argument: `CGTATAAG` 0.481

I'd like to know its PBM E-score. The sequence in question is `CCCTAGCA` -0.26

meta.source: the supplement of paper PMC3334620
